Values from the MegaScale stability set (Tsuboyama et al. 2023)

Reported folding stability dG values are given for each entry in this list.
B1: 6YSE (parent)
chain: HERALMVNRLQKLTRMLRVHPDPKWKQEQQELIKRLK

variants of: B1; test: folding stability dG (cDNA display proteolysis); higher = more stable; conditions: PBS, room temperature
Expressed in kcal/mol, but write only the number.

# variant_code, readout_unit, folding stability dG
records = [
    ("Q30K", "kcal/mol", 0.968),
    ("R18M", "kcal/mol", 1.29),
    ("N8W", "kcal/mol", 1.34),
]

variant K26G , folding stability dG observed: -0.052

variant K24L , folding stability dG observed: 1.11

variant R18S , folding stability dG observed: 0.989

variant R15W , folding stability dG observed: 0.914

variant D22W , folding stability dG observed: 0.947

variant E31I , folding stability dG observed: 1.14

variant H1I , folding stability dG observed: 1.34

variant K26Q , folding stability dG observed: 1.03

variant R18W , folding stability dG observed: 0.417

variant K24D , folding stability dG observed: 0.986
